- Tested on: MIWI (PIWIL1) piRISC loaded with Kctd7 piRNA (30 nt);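 also: 1 nM active piRISC with 0.1 nM target library at 33 °C single turnover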
- method.notes: pre-steady-state target cleavage rate (min^-1); MIWI and MILI are mouse PIWI proteins and EfPiwi is from a freshwater sponge; tags in brackets are library labels; higher = faster piRNA-guided slicing of the target;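 also: 1 nM active piRISC with 0.1 nM target library at 33 °C single turnover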
- experimental.parameters: guide: Kctd7 piRNA 5'p-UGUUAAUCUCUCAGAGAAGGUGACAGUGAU; auxiliary factor: 500 nM mouse GTSF1
The full ranking holds about 6,600 sequences; the median of “pre-steady-state target cleavage rate” is about 0.07, and the highest 2% start at about 0.72. The sample as a whole holds a higher share of the highest values than the screen did.
Outcome: met for pre-steady-state target cleavage rate of at least 0.5; not met for anything lower.

Query: # check: pre-steady-state target cleavage rate of "UUCACUGUGCACCUUCUCUGAGAGAUUAACA" is greater than or equal to 0.5
Reply: met

Query: # check: pre-steady-state target cleavage rate of "UUGUCUGUCACCUUCUCUGAGAGAUUAACA" is greater than or equal to 0.5
Reply: met

Query: # check: pre-steady-state target cleavage rate of "AACUCUGUCACCUUCUCUGAGAGAUUAACA" is greater than or equal to 0.5
Reply: met

Query: # check: pre-steady-state target cleavage rate of "AUGUCUGUCACCUUCUCUGAGAGAUUAACA" is greater than or equal to 0.5
Reply: met

Query: # check: pre-steady-state target cleavage rate of "UAGUGACUCACCCUCUCUGAGAGAUUAACA" is greater than or equal to 0.5
Reply: not met

Query: # check: pre-steady-state target cleavage rate of "UAGUGACAGUCCCUUCUCUGAGAGAUUAACA" is greater than or equal to 0.5
Reply: met

Query: # check: pre-steady-state target cleavage rate of "UAGUGUGUCACCUUCUCUGAGACUUUAUGA" is greater than or equal to 0.5
Reply: not met

Query: # check: pre-steady-state target cleavage rate of "AUCGCUGUCACCUUCUCUGAGAGAUUAACA" is greater than or equal to 0.5
Reply: met

Query: # check: pre-steady-state target cleavage rate of "UUCGCUGUCACCUUCUCUGAGAGAUUAACA" is greater than or equal to 0.5
Reply: met

Query: # check: pre-steady-state target cleavage rate of "UUCUGUGUCACCUUCUCUGAGAGAUUAACA" is greater than or equal to 0.5
Reply: not met

Query: # check: pre-steady-state target cleavage rate of "UACACUGGCACCUUCUCUGAGAGAUUAACA" is greater than or equal to 0.5
Reply: not met

Query: # check: pre-steady-state target cleavage rate of "AUCUCUGUCACCUACUCUGAGAGAUUAACA" is greater than or equal to 0.5
Reply: met

Query: # check: pre-steady-state target cleavage rate of "UAGUGACAGUGCAUUCUCUGAGAGAUUAACA" is greater than or equal to 0.5
Reply: not met
